# procedure summary: Drug repurposing screens with cells derived from glioblastoma tumor samples (AID 1345199); further: on the % scale 0 is the no-effect control and ±100 the full control effect; nearly all actives have a fitted effect of over 40% in size
# experimental conditions: GBM patient neurospheres viability, ATP luminescence, 48 h; at 20 µM (top of the series); tumour line C
Inconclusive results are not listed.
What activity, negative = cell killing was measured for each of the following?
Numeric answer only, unit % assumed.

Task: Given COc1c(C)c2c(c(O)c1C/C=C(\C)CCC(=O)O)C(=O)OC2 , respond with its activity, negative = cell killing.
Output: -18.6

Task: Give a short answer stating reported activity, negative = cell killing for CC1(C)O[C@@H]2C[C@H]3[C@@H]4CCC5=CC(=O)CC[C@]5(C)[C@@]4(F)[C@@H](O)C[C@]3(C)[C@]2(C(=O)CCl)O1 .
Output: -1.51

Task: Give me measured activity, negative = cell killing, please, for this compound: COc1ccc(OC)c(C(O)CNC(=O)CN)c1 (configuration not stated)
Output: -8.51

Task: # return recorded activity, negative = cell killing for entry CC1=C(C(=O)O)N2C(=O)[C@@H](NC(=O)[C@H](N)c3ccc(O)cc3)[C@H]2SC1
Output: -0.623

Task: For CC(=O)OCC(=O)[C@@]1(O)[C@H](C)C[C@H]2[C@@H]3CCC4=CC(=O)C=C[C@]4(C)[C@@]3(F)[C@@H](O)C[C@@]21C , write its activity, negative = cell killing.
Output: -1.02

Task: Report activity, negative = cell killing for CC(=O)[C@H]1CC[C@H]2[C@@H]3C[C@H](C)C4=CC(=O)CC[C@]4(C)[C@H]3[C@@H](O)C[C@]12C
Output: 12.3

Task: // fetch activity, negative = cell killing given entry CC1(C)O[C@@H]2C[C@H]3[C@@H]4C[C@H](F)C5=CC(=O)CC[C@]5(C)[C@H]4[C@@H](O)C[C@]3(C)[C@]2(C(=O)CO)O1
Output: -16.9

---

# procedure summary: qHTS of pediatric cancer cell lines to identify multiple opportunities for drug repurposing: Primary screen for A673 cells (AID 1347092); further: nearly all actives have a fitted effect of over 45% in size; further: potency means the concentration at half of the fitted maximal effect
# experimental conditions: A673 Ewing sarcoma viability, CellTiter-Glo ATP luminescence, 48 h; series mostly up to 46 µM
Inconclusive results are not listed. Active and inactive are the calls of the source. Calls follow the shape of the dose curve; as a rule, active = well fitted cell-killing curve with a large enough effect; inconclusive = small, poorly fitted or top-dose-only effect; inactive = no such curve, though single readings can be large or run the other way.
readout name: Potency

Worked examples, 5 compounds total:
>  <compound>
O=C(O)CNC(=O)c1ccccc1

>  <Potency>
inactive

$$$$
>  <compound>
CC(=O)Oc1ccc(C(=C2CCCCC2)c2ccc(OC(C)=O)cc2)cc1

>  <Potency>
inactive

$$$$
>  <compound>
CCOC(=O)c1cccc(N)c1

>  <Potency>
inactive

$$$$
>  <compound>
Oc1c(I)cc(Cl)c2cccnc12

>  <Potency>
21.1 µM (active)

$$$$
>  <compound>
CN1[C@@H]2CC[C@H]1CC(OC(=O)c1c[nH]c3ccccc13)C2 (stereo partly specified)

>  <Potency>
inactive

$$$$

Okay, now this compound:
Task: Note down Potency recorded for COc1ccc(CN2CCN(C(c3ccc(F)cc3)c3ccc(F)cc3)CC2)c(OC)c1OC
Output: 21.1 µM (active)

---

# procedure summary: Cellular Toxicity (caspase-3) NIH 3T3 (AID 666);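 further: caspase signal read after 16 h compound exposure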; further: potency means the concentration at half of the fitted maximal effect;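 on caspase-3 activation: 0% = DMSO basal and 100% = 100 µM tamoxifen stimulation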
# experimental conditions: NIH 3T3 caspase-3 activation, apoptosis/toxicity; series mostly up to 92.2 µM
Inconclusive results are not listed. Active and inactive are the calls of the source. Calls follow the shape of the dose curve; as a rule, active = well fitted activation curve with a large enough effect; inconclusive = small, poorly fitted or top-dose-only effect, or effect the other way; inactive = flat fitted curve, though single readings scatter. Numbered stars: 1 amine (or outer) side, 2 acyl side, 3 side chain; on linkers, the order of the positions; unused ones are H or OH. Bridge positions count the residues as written; N and C are the ends. Square brackets hold non-standard residues; d marks the D form. Peptide text beside a SMILES is read from it. I, II: the chains in the order shown. Actinocin(9to1) = Cc1c2oc3c(C)ccc(C(=O)[*:1])c3nc-2c(C(=O)[*:2])c(N)c1=O; NMeV = CN[C@H](C(=O)O)C(C)C; Sar = CNCC(=O)O

>  <molecule>
O=c1ccc2ccccc2o1

>  <Potency>
inactive

$$$$
>  <molecule>
O=C(O)CCCCC(=O)O

>  <Potency>
inactive

$$$$
>  <molecule>
Cc1c2oc3c(C)ccc(C(=O)N[C@@H]4C(=O)N[C@H](C(C)C)C(=O)N5CCC[C@H]5C(=O)N(C)CC(=O)N(C)[C@@H](C(C)C)C(=O)O[C@@H]4C)c3nc-2c(C(=O)N[C@@H]2C(=O)N[C@H](C(C)C)C(=O)N3CCC[C@H]3C(=O)N(C)CC(=O)N(C)[C@@H](C(C)C)C(=O)O[C@@H]2C)c(N)c1=O (I: T[dV]P[Sar][NMeV] / II: T[dV]P[Sar][NMeV]; ester I:1-I:C, II:1-II:C; linker I:N-II:N via Actinocin(9to1))

>  <Potency>
25.1 nM (active)

$$$$
>  <molecule>
O=C1OC(c2ccc(O)cc2)(c2ccc(O)cc2)c2ccccc21

>  <Potency>
inactive

$$$$

---

# System: TAB165
# procedure summary: qHTS profiling for inhibitors of Plasmodium falciparum proliferation (AID 504749); further: nearly all actives have a fitted effect of over 60% in size
# experimental conditions: P. falciparum in erythrocytes, SYBR Green DNA, 72 h; series mostly up to 28.7 µM
Records with an inconclusive call do not appear. The source made the active and inactive calls. Calls come from the whole dose curve; as a rule, active = well fitted inhibition curve with a large enough effect; inconclusive = small, poorly fitted or top-dose-only effect; inactive = flat fitted curve, though single readings scatter.
Mark one answer only. Choices: 1 = active, -1 = inactive

Task: // return assay outcome for CCCCCCCCCCCCCCCCCC(=O)OCC(O)CO (configuration not stated)
Output: -1

Task: Lab log entry: C[C@@H]1CN(CCCn2c3ccccc3c3ccccc32)C[C@H](C)N1 — outcome as called in the assay?
Output: 1

Task: What was the test verdict on CC(=O)c1ccc2c(c1)N(CCCN1CCC(CCO)CC1)c1ccccc1S2 ?
Output: -1

Task: Name the outcome recorded for CCCCCCCCCCCCCCCC[N+](C)(C)CC in the assay.
Output: 1

Task: Outcome? CN1CCN(C(c2ccccc2)c2ccccc2)CC1
Output: -1

Task: State the result this test recorded for C[C@H]1C[C@H]2[C@@H]3CCC4=CC(=O)C=C[C@]4(C)[C@@]3(Cl)[C@@H](O)C[C@]2(C)[C@@]1(O)C(=O)CO .
Output: -1

Task: How was COc1ccc(C2C(=O)c3ccccc3C2=O)cc1 classified in this test?
Output: -1

Task: State the result this test recorded for CC(C)(C)CC(C)(C)c1ccc(OCCOCC[N+](C)(C)Cc2ccccc2)cc1 .
Output: 1

Task: Lab log entry: CC(O)C(=O)O (configuration not stated) — outcome as called in the assay?
Output: -1

Task: # fetch the recorded call for CC(=O)OCC(=O)NCCCOc1cccc(CN2CCCCC2)c1 here
Output: -1

Task: For CCCCOc1ccc(C(=O)CCN2CCCCC2)cc1 , what call appears in the results of this test?
Output: -1

Task: What is the recorded call for this compound in the test? O=C1c2ccccc2C(=O)C1c1ccccc1
Output: -1

---

# system tested: Cytochrome P450 2C9 (Homo sapiens) (UniProt P11712)
# Sequence (P11712 whole entry, looked up): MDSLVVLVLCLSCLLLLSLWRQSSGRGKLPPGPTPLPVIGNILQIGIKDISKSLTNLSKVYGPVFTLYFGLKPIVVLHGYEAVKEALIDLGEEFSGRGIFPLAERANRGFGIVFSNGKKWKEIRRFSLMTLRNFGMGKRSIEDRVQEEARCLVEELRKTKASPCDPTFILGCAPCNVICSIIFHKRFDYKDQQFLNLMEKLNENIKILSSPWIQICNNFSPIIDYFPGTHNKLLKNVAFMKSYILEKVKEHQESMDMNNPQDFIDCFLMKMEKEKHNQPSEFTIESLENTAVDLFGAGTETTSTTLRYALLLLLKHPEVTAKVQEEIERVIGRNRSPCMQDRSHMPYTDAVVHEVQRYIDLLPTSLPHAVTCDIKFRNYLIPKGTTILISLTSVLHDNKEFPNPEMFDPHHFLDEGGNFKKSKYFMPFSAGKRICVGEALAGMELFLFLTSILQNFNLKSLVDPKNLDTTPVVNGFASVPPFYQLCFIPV
# procedure summary: Cytochrome P450 family 2 subfamily C member 9 (CYP2C9) small molecule antagonists: luciferase biochemical (cell-free) qHTS assay (AID 1645842); further: on the % scale 0 is the no-effect control and ±100 the full control effect; nearly all actives have a fitted effect of over 55% in size
# experimental conditions: P450-Glo CYP2C9 enzyme assay, luciferin luminescence; series mostly up to 57.4 µM
Results filed as inconclusive are left out. Calls of active or inactive are those of the source. Calls come from the whole dose curve; as a rule, active = well fitted inhibition curve with a large enough effect in the repeat runs; inconclusive = weak or mixed curves; inactive = no such curve, though single readings can be large or run the other way.
readout name: outcome

>  <compound>
CC(C)(C(=O)c1cccnc1)c1cccnc1

>  <system tested>
Cytochrome P450 2C9 (Homo sapiens) (UniProt P11712)

>  <test value>
inactive

$$$$
>  <compound>
C[n+]1c2cc(N)ccc2cc2ccc(N)cc21 (tested in a mixture with another compound)

>  <system tested>
Cytochrome P450 2C9 (Homo sapiens) (UniProt P11712)

>  <test value>
inactive

$$$$
>  <compound>
Nc1ccc(C(=O)Nc2ccccc2N)cc1

>  <system tested>
Cytochrome P450 2C9 (Homo sapiens) (UniProt P11712)

>  <test value>
inactive

$$$$
>  <compound>
CC(=O)N(O)CCCCCNC(=O)CCC(=O)N(O)CCCCCNC(=O)CCC(=O)N(O)CCCCCN

>  <system tested>
Cytochrome P450 2C9 (Homo sapiens) (UniProt P11712)

>  <test value>
inactive

$$$$

---

# procedure summary: qHTS of pediatric cancer cell lines to identify multiple opportunities for drug repurposing: Primary screen for LAN-5 cells (AID 1347100)
# experimental conditions: LAN-5 neuroblastoma viability, CellTiter-Glo luminescence, 48 h; series mostly up to 46 µM
Results filed as inconclusive are left out. Active and inactive are the calls of the source. The call rests on the fitted dose curve; in most records, active means well fitted cell-killing curve with a large enough effect; inconclusive means small, poorly fitted or top-dose-only effect; inactive means no such curve, though single readings can be large or run the other way.
Choose the fitting class; nothing outside 1 (active), 0 (inactive) is accepted.

Task: Recorded call for OC(CCN1CCCCC1)(c1ccccc1)c1ccccc1 ?
Output: 0

Task: Kindly provide the recorded test outcome for the following molecule: COc1ccc(CCN2CCC(Nc3nc4ccccc4n3Cc3ccc(F)cc3)CC2)cc1
Output: 1

Task: Lab log entry: CN=C(NC#N)Nc1ccc(C2=NNC(=O)CC2C)cc1 (configuration not stated) — outcome as called in the assay?
Output: 0

Task: Could you kindly confirm the outcome this assay logged for C/C=C/c1ccc(OC)cc1 ?
Output: 0

Task: Outcome? OCc1ccccc1O
Output: 0

Task: State the result this test recorded for C[n+]1c2cc(N)ccc2cc2ccc(N)cc21 (tested in a mixture with another compound) .
Output: 1

Task: Kindly provide the recorded test outcome for the following molecule: C[C@@H]1C[C@H]2[C@@H]3C[C@H](F)C4=CC(=O)C(Cl)=C[C@]4(C)[C@@]3(F)[C@@H](O)C[C@]2(C)[C@@]1(O)C(=O)CO
Output: 0

Task: Could you please tell me the result logged for NCCc1ccn[nH]1 in this assay?
Output: 0

Task: Tell me the assay call for Cc1ncc(CSSCc2cnc(C)c(O)c2CO)c(CO)c1O please.
Output: 0

Task: Hi, do you know how COC(=O)CCc1ccc(OCC(O)CNC(C)C)cc1 (configuration not stated) came out in this test?
Output: 0

Task: // param item: CCOC(=O)OC(C)OC1=C(C(=O)Nc2ccccn2)N(C)S(=O)(=O)c2ccccc21 (configuration not stated) ; yields the recorded call
Output: 0

Task: Dear all, I need the recorded test outcome for Cc1onc(-c2c(Cl)cccc2Cl)c1C(=O)N[C@@H]1C(=O)N2[C@@H]1SC(C)(C)[C@@H]2C(=O)O , thank you.
Output: 0

Task: // param item: Oc1ccc(Cl)c2cccnc12 ; yields the recorded call
Output: 1

Task: Just curious, what result did CCN(CCCCOC(=O)c1ccc(OC)c(OC)c1)C(C)Cc1ccc(OC)cc1 (configuration not stated) get here?
Output: 0

Task: So what was the verdict on C[C@H](O)C(=O)Nc1c(I)c(C(=O)NC(CO)CO)c(I)c(C(=O)NC(CO)CO)c1I in this test?
Output: 0

Task: Which result was noted for this molecule in the test: COc1cc(-c2ccc(=O)[nH]n2)ccc1OC(F)F
Output: 0

Task: In this assay, the call recorded for CCOC(=O)/C=C(C)/C=C/C=C(C)/C=C/c1c(C)cc(OC)c(C)c1C was what?
Output: 0

Task: Field: outcome | Entry: CCOC(=O)c1cccc(N)c1
Output: 0

Task: Call for entry CN(C)C(=S)SC(=S)N(C)C :
Output: 1

Task: Could you kindly confirm the outcome this assay logged for COC(=O)[C@@H]1CC2=CC(=O)CC[C@]2(C)[C@@]23O[C@@H]2C[C@@]2(C)[C@@H](CC[C@@]24CCC(=O)O4)[C@H]13 ?
Output: 0

Task: Outcome? CN(C)CCOc1ccccc1Cc1ccccc1
Output: 0

Task: // return assay outcome for CC1(C)O[C@@H]2[C@@H](CO[C@@]3(COS(N)(=O)=O)OC(C)(C)O[C@@H]23)O1
Output: 0

Attribution: PubChem BioAssay (NCATS)
